System: HOP-92
Test: NCI tumour cell line growth inhibition, 48 h
Calls of active or inactive are those of the source. Cut-off read from the data, not from the text of the source: active = GI50 up to about 1.1 µM and inactive = higher.
# GI50 values compiled below

Below, each entry is followed by its recorded GI50 result.
molecule "Cc1ccc(S(=O)(=O)N2CCNCCN(S(=O)(=O)c3ccc(C)cc3)CCN(S(=O)(=O)c3ccc(C)cc3)CC2)cc1" , GI50 observed: 70.8 µM (inactive)

molecule O=C(CC1C(=O)Nc2ccccc2[S+]1[O-])Nc1cc(Cl)ccc1Cl (stereo unspecified) , GI50 observed: > 100 µM (inactive)

molecule O=C1CCC2(c3ccccc3)Nc3cc(Cl)ccc3N12 (stereo unspecified) , GI50 observed: 13.7 µM (inactive)

molecule O=c1[nH]c(=O)n(C2CC(O)C(CS)O2)cc1F (stereo unspecified) , GI50 observed: 9.79 µM (inactive)

Others:
molecule NC(=O)C(=O)N/N=C1/c2ccccc2CC1C1(O)C(=O)Nc2c(Cl)cc(Cl)cc21 (stereo unspecified) , GI50 observed: > 100 µM (inactive)

molecule N#CC1(C#N)C=CC(=C2OCC3CCCN23)C=C1 (stereo unspecified) , GI50 observed: 96.2 µM (inactive)

molecule CC1NOC(NS(=O)(=O)c2ccc(/N=N/c3c(O)c(C(=O)O)cc4ccccc34)cc2)C1C (stereo unspecified) , GI50 observed: > 100 µM (inactive)

molecule "COc1cccc(NC(=O)CC(=O)Nc2cccc(OC)c2)c1" , GI50 observed: > 100 µM (inactive)

molecule CC(=O)C1C(=O)C(=O)N(c2ccc([N+](=O)[O-])cc2Cl)C1=O (stereo unspecified) , GI50 observed: 56.6 µM (inactive)

molecule "O=C1OC(c2ccccc2)=N/C1=C\c1cccnc1" , GI50 observed: > 100 µM (inactive)

molecule "Brc1ccc2[nH]cc(-c3nc(-c4c[nH]c5ccccc45)cs3)c2c1" , GI50 observed: 2.54 µM (inactive)
